Entries and their Fold-change — Normalized to DMSO control (BDNF) values follow.
# Test system: BDNF-induced nuclear Arc expression in primary cortical neurons
# Assay explanation: Chemogenomic screen: high-content image-based assay of BDNF-induced nuclear Arc expression (96-well)
# Type: cell-based, mouse
# Experimental parameters: nuclear Arc-positive cells relative to DMSO + BDNF control; negative values = decrease
Where a name gives a salt, the structure may show the parent alone.
Lab book: enter the figure in fold, no units written.

- Molecule: "COc1ccc(C(=O)NCc2ccc(OCCN(C)C)cc2)cc1OC.Cl [Itopride hydrochloride]"
  Result units: "fold"
  Readout value: 1.2
- Molecule: "COc1ccc(/C=C/c2cc(OC)cc(=O)o2)cc1"
  Result units: "fold"
  Readout value: 1.5
- Molecule: "CN1C(=O)CC[C@H]1c1cccnc1"
  Result units: "fold"
  Readout value: 1.6

Requested field: Fold-change — Normalized to DMSO control (BDNF). Item: COc1ccc(CN(CCN(C)C)c2ccccn2)cc1 [Pyrilamine maleate]
1.3

Follow-up entry: O=C(CCNNC(=O)c1ccncc1)NCc1ccccc1 [Nialamide]
1.5

###

# Test system: BDNF-induced nuclear Arc expression in primary cortical neurons
# Assay explanation: Chemogenomic screen: high-content image-based assay of BDNF-induced nuclear Arc expression (96-well)
# Format: cell-based, mouse
# Experimental parameters: nuclear Arc-positive cells relative to DMSO + BDNF control; negative values = decrease
Measured Fold-change — Normalized to DMSO control (BDNF) values are reported for all entries that follow.
Report the value in fold with no unit label.

Can you share its Fold-change — Normalized to DMSO control (BDNF)? I mean this compound: CC#C[C@]1(O)CC[C@H]2[C@@H]3CCC4=CC(=O)CCC4=C3[C@@H](c3ccc(N(C)C)cc3)C[C@@]21C
2.2

Similarly, CCN1CCCC1CNC(=O)c1cc(S(=O)(=O)CC)c(N)cc1OC (stereo not drawn) [Amisulpride] ?
1.3

Likewise for O=C1c2cc3c(cc2OC2CCCN12)OCCO3 (stereo not drawn) ?
-1.5

Query C[C@H](NCc1ccc(OCc2cccc(F)c2)cc1)C(N)=O [Safinamide] next
1.3

Likewise for CC1Nc2ccc(Cl)cc2S(=O)(=O)N1 (stereo not drawn) ?
-1.6

Check NCC(CC(=O)O)c1ccc(Cl)cc1 (stereo not drawn) too.
1.5

Consider next the compound C[C@]12COC(=O)C[C@@H]1CC[C@@H]1[C@@H]2CC[C@@]2(C)[C@H]1CC[C@]2(C)O in the same way.
1.7

###

# Tested on: BDNF-induced nuclear Arc expression in primary cortical neurons
# Assay explanation: Chemogenomic screen: high-content image-based assay of BDNF-induced nuclear Arc expression (96-well)
# Type: cell-based, mouse
# Experimental parameters: nuclear Arc-positive cells relative to DMSO + BDNF control; negative values = decrease
Where a name gives a salt, the structure may show the parent alone.
Overview of reported Fold-change — Normalized to DMSO control (BDNF) across a group of compounds:
Express it in fold; write the number only.

- Compound: "CC(CN(C)C)CN1c2ccccc2CCc2ccccc21 (centres unmarked) [Trimipramine maleate]"
  Readout value: 1.1
- Compound: "CCN1CCC[C@H]1CNC(=O)c1cc(S(N)(=O)=O)ccc1OC [Levosulpiride]"
  Readout value: 1.4
- Compound: "Cc1cc(C(=O)NNCc2ccccc2)no1"
  Readout value: 1.1
- Compound: "COc1cc2c(cc1OC)[C@@H]1Cc3ccc(OC)c(OC)c3CN1CC2"
  Readout value: 1.5

Suppose we examine the compound CN(C)CCC(c1ccc(Cl)cc1)c1ccccn1 (centres unmarked) ; what Fold-change — Normalized to DMSO control (BDNF) value has been reported?
1.6

Another: C[C@H](NC[C@H](O)CP(=O)(O)Cc1ccccc1)c1ccc(Cl)c(Cl)c1
1.3

Query CNCC(O)c1ccc(O)cc1 (centres unmarked) [Synephrine] next
1.4

// query: Nc1cccc(-c2cc3c(Oc4cccc(O)c4)ncnc3[nH]2)c1
1.7

###

# System: BDNF-induced nuclear Arc expression in primary cortical neurons
# Assay explanation: Chemogenomic screen: high-content image-based assay of BDNF-induced nuclear Arc expression (96-well)
# Type: cell-based, mouse
# Experimental parameters: nuclear Arc-positive cells relative to DMSO + BDNF control; negative values = decrease
Where a name gives a salt, the structure may show the parent alone.
Assign class by Fold-change — Normalized to DMSO control (BDNF): not lower than 2 fold means True; lower than 2 fold means False.

Example cases with answers are listed next.
- Compound: "CN(C)CCc1c[nH]c2ccc(C[C@H]3COC(=O)N3)cc12"
  Assigned category: "True"
- Compound: "CCOC(=O)[C@H](CCc1ccccc1)N[C@@H](C)C(=O)N1CCC[C@H]1C(=O)O"
  Assigned category: "False"
- Compound: "CN[C@@H]1Cc2cccc3[nH]c(=O)n(c23)C1"
  Assigned category: "True"
- Compound: "Cl.c1ccc2c(c1)OCC(C1=NCCN1)O2 (stereo not shown) [Idazoxan hydrochloride, RX 781094]"
  Assigned category: "False"
- Compound: "OC(CCN1CCCCC1)(c1ccccc1)C1CCCCC1 (stereo not shown) [Benzhexol hydrochloride]"
  Assigned category: "False"
- Compound: "Oc1ccc(/C=C/c2cc(O)cc(O)c2)cc1"
  Assigned category: "False"
- Compound: "CCCn1cnc2c1c(=O)n(CCCCC(C)=O)c(=O)n2C"
  Assigned category: "False"
- Compound: "CN1C(=O)CC(c2ccccc2)C1=O (stereo not shown) [Phensuximide]"
  Assigned category: "False"
- Compound: "O=c1c(-c2ccc(O)cc2)coc2cc(O)ccc12"
  Assigned category: "True"
- Compound: "C=C[C@@]1(C)CC(=O)[C@]2(O)[C@@]3(C)[C@@H](O)CCC(C)(C)[C@@H]3[C@H](OC(=O)CCN(C)C)[C@H](OC(C)=O)[C@@]2(C)O1.Cl [Colforsin dapropate hydrochloride]"
  Assigned category: "False"

Hi team, for C[C@@](Cc1ccc(O)c(O)c1)(NN)C(=O)O , is the recorded Fold-change — Normalized to DMSO control (BDNF) at or above 2 fold?
False

Again, but for CN1[C@@H]2CC[C@H]1C[C@@H](OC(=O)c1c[nH]c3ccccc13)C2
False

Also check Cn1cc(C2=C(c3coc4ccccc34)C(=O)NC2=O)c2cc(Br)ccc21
False

Also check O=c1cc(-c2ccc(O)c(O)c2)oc2cc(O)cc(O)c12
False

Here is the next compound: O=C(CCCN1CCC2(CC1)C(=O)NCN2c1ccccc1)c1ccc(F)cc1
False

###

# System: BDNF-induced nuclear Arc expression in primary cortical neurons
# Assay explanation: Chemogenomic screen: high-content image-based assay of BDNF-induced nuclear Arc expression (96-well)
# Assay type: cell-based, mouse
# Experimental parameters: nuclear Arc-positive cells relative to DMSO + BDNF control; negative values = decrease
# key: entry, value: Fold-change — Normalized to DMSO control (BDNF)
Report only the number, with the unit fold understood.

Illustrative cases are given below, each with its answer.
- Molecule: "Nc1c2c(nc3ccccc13)CCCC2O (stereo not shown) [Hydroxytacrine]"
  Readout value: 1.9
- Molecule: "O=C(O)CCCNC(=O)c1cccnc1"
  Readout value: 2.0
- Molecule: "O=C(c1ccc2nccnc2c1)N1CCCCC1"
  Readout value: 2.1

Now examine the next entry.
Under BDNF-induced nuclear Arc expression in primary cortical neurons: Fold-change — Normalized to DMSO control (BDNF) value of COc1ccc2[nH]cc(CCNC(C)=O)c2c1 ?
1.3

###

# Test system: BDNF-induced nuclear Arc expression in primary cortical neurons
# Assay explanation: Chemogenomic screen: high-content image-based assay of BDNF-induced nuclear Arc expression (96-well)
# Type: cell-based, mouse
# Experimental parameters: nuclear Arc-positive cells relative to DMSO + BDNF control; negative values = decrease
Where a name gives a salt, the structure may show the parent alone.
Endpoint: Fold-change — Normalized to DMSO control (BDNF) (fold)
Write the number in fold without appending the unit.

- Compound: "CN1[C@H]2C[C@H](OC(=O)[C@H](CO)c3ccccc3)C[C@@H]1[C@@H](O)C2"
  Measured target: "BDNF-induced nuclear Arc expression in primary cortical neurons"
  Result units: "fold"
  Readout value: 1.3
- Compound: "CN1C(=O)CCS(=O)(=O)C1c1ccc(Cl)cc1 (centres unmarked)"
  Measured target: "BDNF-induced nuclear Arc expression in primary cortical neurons"
  Result units: "fold"
  Readout value: 1.3
- Compound: "COC1=CC(=O)O[C@@H](/C=C/c2ccccc2)C1"
  Measured target: "BDNF-induced nuclear Arc expression in primary cortical neurons"
  Result units: "fold"
  Readout value: 1.8
- Compound: "CN1C[C@H](C(=O)N[C@]2(C)O[C@@]3(O)[C@@H]4CCCN4C(=O)[C@H](Cc4ccccc4)N3C2=O)C[C@@H]2c3cccc4[nH]cc(c34)C[C@H]21.CN1C[C@H](C(=O)N[C@]2(C)O[C@@]3(O)[C@@H]4CCCN4C(=O)[C@H](Cc4ccccc4)N3C2=O)C[C@@H]2c3cccc4[nH]cc(c34)C[C@H]21.O=C(O)C(O)C(O)C(=O)O [Dihydroergotamine tartrate]"
  Measured target: "BDNF-induced nuclear Arc expression in primary cortical neurons"
  Result units: "fold"
  Readout value: 1.1
- Compound: "CN(C)CCCOc1nn(Cc2ccccc2)c2ccccc12"
  Measured target: "BDNF-induced nuclear Arc expression in primary cortical neurons"
  Result units: "fold"
  Readout value: 1.3

Which Fold-change — Normalized to DMSO control (BDNF) is reported for this compound? O=C(O)C1CCCNC1 (centres unmarked)
1.4

Lookup CCN(CC)CCNC(=O)c1cc(S(C)(=O)=O)ccc1OC [Tiapride hydrochloride]
1.1

Next record, please: Cc1cccc(C)c1NC(=O)CN1CCCC1=O
1.0

Entry COc1cc2c(cc1OC)C1CC(=O)C(CC(C)C)CN1CC2 (centres unmarked) please
1.3

Also check C1CCN2C[C@@H]3C[C@@H](CN4CCCC[C@@H]34)[C@H]2C1
1.3

And for CCN(C)C(=O)Oc1cccc([C@H](C)N(C)C)c1 ?
1.7

Item: CCN1CCCC1CNC(=O)c1cc(S(N)(=O)=O)ccc1OC (centres unmarked) [Sulpiride]
1.4

Please give the result for NC(=O)CCC/N=C(\c1ccc(Cl)cc1)c1cc(F)ccc1O [Progabide] too.
1.0

Now consider Cc1nccn1CC1CCc2c(c3ccccc3n2C)C1=O (centres unmarked) .
1.9

Could you do the same for C[C@]12N[C@H](Cc3ccccc31)c1ccccc12 , please?
1.1

For CCN1CCC[C@H]1CNC(=O)c1c(OC)ccc(Br)c1OC [Remoxipride] then?
1.8

Another compound to check: CCN(CC)C(C)CN1c2ccccc2Sc2ccccc21 (centres unmarked)
1.4

Would you kindly repeat that for O=c1c(-c2ccc(O)cc2)coc2cc(O)cc(O)c12 ?
1.6

Quick one: O=c1cc(-c2ccccc2)oc2c(O)c(O)ccc12 [7,8-Dihydroxyflavone]
1.7

Here is the next compound: CC(C)C[C@H](NC(=O)[C@H](CCCCN)NC(=O)[C@H](CCCN=C(N)N)NC(=O)[C@H](C)NC(=O)[C@H](CO)NC(=O)[C@H](CCCCN)NC(=O)[C@H](CCCN=C(N)N)NC(=O)[C@H](C)NC(=O)CNC(=O)[C@@H](NC(=O)[C@H](Cc1ccccc1)NC(=O)CNC(=O)CNC(=O)[C@@H](N)Cc1ccccc1)[C@@H](C)O)C(=O)N[C@@H](C)C(=O)N[C@@H](CC(N)=O)C(=O)N[C@@H](CCC(N)=O)C(=O)O
1.1
